measured_on: Glucocorticoid receptor (Homo sapiens)
Sequence (P04150 whole entry): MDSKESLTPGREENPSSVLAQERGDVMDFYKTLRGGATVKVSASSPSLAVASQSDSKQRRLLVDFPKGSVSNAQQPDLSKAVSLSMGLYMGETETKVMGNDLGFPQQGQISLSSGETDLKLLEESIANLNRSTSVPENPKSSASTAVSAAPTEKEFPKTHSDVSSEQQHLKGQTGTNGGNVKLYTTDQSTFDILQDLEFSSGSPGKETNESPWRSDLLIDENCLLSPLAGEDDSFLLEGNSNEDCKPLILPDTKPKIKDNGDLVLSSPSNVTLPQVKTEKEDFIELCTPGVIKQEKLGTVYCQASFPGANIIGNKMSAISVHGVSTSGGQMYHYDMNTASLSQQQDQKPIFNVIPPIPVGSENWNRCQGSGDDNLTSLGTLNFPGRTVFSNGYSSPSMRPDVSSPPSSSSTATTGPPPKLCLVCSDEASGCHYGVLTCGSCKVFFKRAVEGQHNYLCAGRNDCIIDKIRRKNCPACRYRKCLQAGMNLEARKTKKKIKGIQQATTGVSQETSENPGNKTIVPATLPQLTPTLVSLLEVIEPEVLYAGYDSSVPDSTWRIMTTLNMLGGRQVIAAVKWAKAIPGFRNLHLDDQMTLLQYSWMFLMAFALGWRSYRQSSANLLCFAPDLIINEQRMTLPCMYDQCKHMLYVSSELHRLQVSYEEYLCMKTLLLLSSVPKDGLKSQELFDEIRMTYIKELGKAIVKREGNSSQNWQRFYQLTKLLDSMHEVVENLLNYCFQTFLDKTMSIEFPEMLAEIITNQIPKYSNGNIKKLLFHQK
test: Cross-reactivity as binding to human glucocorticoid receptor (hGR)
Format: functional
// returns Not met unless IC50 is strictly below 900 nM, in which case Met

Input line: Would you kindly verify if IC50 of CC1=CC(C)(C)Nc2ccc(-c3csc(C#N)c3)cc21 is strictly less than 900 nM?
Output line: Not met

Input line: Would you kindly verify if IC50 of CC1=CC(C)(C)Nc2ccc(-c3ccc(C#N)s3)cc21 is strictly less than 900 nM?
Output line: Not met

Input line: Would you kindly verify if IC50 of Cc1cc(C#N)sc1-c1ccc2c(c1)C(C)(C)C(=O)C(C)(C)N2 is strictly less than 900 nM?
Output line: Met

Input line: Would you kindly verify if IC50 of CC1=CC(C)(C)Nc2ccc(-c3sc(C#N)cc3C)cc21 is strictly less than 900 nM?
Output line: Met

----------
Consider the following compounds; for each one, report its EC50.
measured_on: Progesterone receptor (Homo sapiens, UniProt P06401)
test: Human progesterone receptor (hPR) agonist activity expressed in CV-1 cells
Format: functional, cell-based
Please state the figure in nM; there is no need to write the unit.

Input line: State measured EC50 of the compound Cc1cc(C#N)sc1-c1ccc2c(c1)C(C)(C)C(=O)C(C)(C)N2 with Progesterone receptor (Homo sapiens, UniProt P06401).
Output line: 350

Input line: State measured EC50 of the compound CC1=CC(C)(C)Nc2ccc(-c3ccc(C#N)s3)cc21 with Progesterone receptor (Homo sapiens, UniProt P06401).
Output line: 2900

Input line: State measured EC50 of the compound CC1=CC(C)(C)Nc2ccc(-c3csc(C#N)c3)cc21 with Progesterone receptor (Homo sapiens, UniProt P06401).
Output line: 1800

Input line: State measured EC50 of the compound CC1(C)Nc2ccc(-c3csc(C#N)c3)cc2C(C)(C)C1=O with Progesterone receptor (Homo sapiens, UniProt P06401).
Output line: 1190

----------
Consider the following molecules; for each one, report its IC50.
measured_on: Androgen receptor (Homo sapiens)
Sequence (P10275 whole entry): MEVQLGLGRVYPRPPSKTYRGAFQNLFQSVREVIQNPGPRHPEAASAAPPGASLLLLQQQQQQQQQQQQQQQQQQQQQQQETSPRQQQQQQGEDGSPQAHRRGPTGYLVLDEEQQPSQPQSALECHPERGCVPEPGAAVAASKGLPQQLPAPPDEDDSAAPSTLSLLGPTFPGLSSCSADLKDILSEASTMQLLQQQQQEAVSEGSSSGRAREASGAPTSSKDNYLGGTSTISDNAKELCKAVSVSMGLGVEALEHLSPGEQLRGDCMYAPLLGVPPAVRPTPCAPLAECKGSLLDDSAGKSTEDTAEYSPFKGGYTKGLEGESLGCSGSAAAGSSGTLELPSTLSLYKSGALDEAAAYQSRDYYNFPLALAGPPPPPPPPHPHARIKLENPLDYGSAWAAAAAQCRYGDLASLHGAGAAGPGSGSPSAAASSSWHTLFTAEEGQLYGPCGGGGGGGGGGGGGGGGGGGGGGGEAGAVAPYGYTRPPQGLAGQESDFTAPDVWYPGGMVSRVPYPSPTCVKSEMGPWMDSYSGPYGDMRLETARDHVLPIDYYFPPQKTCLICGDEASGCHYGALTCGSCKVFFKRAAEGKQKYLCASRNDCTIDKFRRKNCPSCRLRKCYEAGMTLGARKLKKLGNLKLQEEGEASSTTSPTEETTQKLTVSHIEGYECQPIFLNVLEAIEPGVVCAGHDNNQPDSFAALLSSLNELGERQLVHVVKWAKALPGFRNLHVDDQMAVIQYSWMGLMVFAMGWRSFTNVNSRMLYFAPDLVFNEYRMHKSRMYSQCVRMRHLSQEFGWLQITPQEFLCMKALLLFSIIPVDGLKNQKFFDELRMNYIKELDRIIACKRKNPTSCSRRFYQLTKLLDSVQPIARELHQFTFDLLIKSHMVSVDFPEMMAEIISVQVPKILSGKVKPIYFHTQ
test: Cross-reactivity as binding to human androgen receptor (hAR)
Please state the figure in nM; there is no need to write the unit.

Input line: Item CC1=CC(C)(C)Nc2ccc(-c3sc(C#N)cc3C)cc21 : provide IC50
Output line: 200

Input line: Item CC1(C)Nc2ccc(-c3csc(C#N)c3)cc2C(C)(C)C1=O : provide IC50
Output line: 1100

Input line: Item CC1=CC(C)(C)Nc2ccc(-c3csc(C#N)c3)cc21 : provide IC50
Output line: 494

Input line: Item Cc1cc(C#N)sc1-c1ccc2c(c1)C(C)CC(C)(C)N2 (configuration not stated) : provide IC50
Output line: 45

Input line: Item CC1=CC(C)(C)Nc2ccc(-c3ccc(C#N)s3)cc21 : provide IC50
Output line: 1110

Input line: Item Cc1cc(C#N)sc1-c1ccc2c(c1)C(C)(C)C(=O)C(C)(C)N2 : provide IC50
Output line: 150

Input line: Item CC1=CC(C)(C)Nc2ccc(-c3ccc([N+](=O)[O-])s3)cc21 : provide IC50
Output line: 1460

----------
measured_on: Progesterone receptor (Homo sapiens)
test: Human progesterone receptor (hPR) agonist activity in T47D human breast cancer cell line
Format: functional, cell-based
pEC50: −log10 of the molar value.
Use condition met when the recorded pEC50 is no lower than 6; use condition not met when it is lower.

Input line: Has CC1=CC(C)(C)Nc2ccc(-c3sc(C#N)cc3C)cc21 a recorded pEC50 greater than or equal to 6?
Output line: condition met

Input line: Has CC1=CC(C)(C)Nc2ccc(-c3ccc(Cl)s3)cc21 a recorded pEC50 greater than or equal to 6?
Output line: condition not met

Input line: Has CC1=CC(C)(C)Nc2ccc(-c3cc(Br)cs3)cc21 a recorded pEC50 greater than or equal to 6?
Output line: condition not met

Input line: Has CC1=CC(C)(C)Nc2ccc(-c3csc(C#N)c3)cc21 a recorded pEC50 greater than or equal to 6?
Output line: condition met

Input line: Has CC1=CC(C)(C)Nc2ccc(-c3c(C)sc(C#N)c3C)cc21 a recorded pEC50 greater than or equal to 6?
Output line: condition met

Input line: Has CC1=CC(C)(C)Nc2ccc(-c3ccc(C#N)s3)cc21 a recorded pEC50 greater than or equal to 6?
Output line: condition not met

----------
Consider the following compounds; for each one, report its IC50.
measured_on: UniProtKB P08235
Sequence (P08235 whole entry): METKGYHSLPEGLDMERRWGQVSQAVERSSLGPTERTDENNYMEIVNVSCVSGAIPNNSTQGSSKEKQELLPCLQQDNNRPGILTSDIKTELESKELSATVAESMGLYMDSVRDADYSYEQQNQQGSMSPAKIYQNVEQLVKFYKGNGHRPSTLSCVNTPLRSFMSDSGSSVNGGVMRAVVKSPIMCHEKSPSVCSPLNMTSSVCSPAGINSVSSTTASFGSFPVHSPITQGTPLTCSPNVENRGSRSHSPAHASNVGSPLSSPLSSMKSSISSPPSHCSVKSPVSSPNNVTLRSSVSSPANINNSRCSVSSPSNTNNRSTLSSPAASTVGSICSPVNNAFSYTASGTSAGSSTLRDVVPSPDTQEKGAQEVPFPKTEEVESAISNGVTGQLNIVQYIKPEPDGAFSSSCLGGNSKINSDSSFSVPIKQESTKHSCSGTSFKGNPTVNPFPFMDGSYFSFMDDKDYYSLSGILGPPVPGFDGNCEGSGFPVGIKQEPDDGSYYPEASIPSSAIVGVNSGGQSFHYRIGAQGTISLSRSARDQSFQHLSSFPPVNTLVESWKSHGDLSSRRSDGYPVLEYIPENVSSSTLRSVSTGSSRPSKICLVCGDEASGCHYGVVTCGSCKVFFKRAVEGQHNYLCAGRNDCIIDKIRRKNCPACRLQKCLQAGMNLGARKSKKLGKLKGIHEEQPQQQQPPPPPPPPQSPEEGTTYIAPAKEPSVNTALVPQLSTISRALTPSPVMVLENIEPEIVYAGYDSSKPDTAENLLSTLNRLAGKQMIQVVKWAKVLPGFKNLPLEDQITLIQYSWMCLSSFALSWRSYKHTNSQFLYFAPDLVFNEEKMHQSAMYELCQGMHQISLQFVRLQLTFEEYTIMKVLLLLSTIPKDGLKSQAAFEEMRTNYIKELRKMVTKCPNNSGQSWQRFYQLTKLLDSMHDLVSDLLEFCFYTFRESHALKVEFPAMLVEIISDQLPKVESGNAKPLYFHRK
test: Cross-reactivity as binding to human mineralocorticoid receptor (hMR)
Assay type: functional
Please state the figure in nM; there is no need to write the unit.

Input line: Item Cc1cc(C#N)sc1-c1ccc2c(c1)C(C)CC(C)(C)N2 (stereo unspecified) : provide IC50
Output line: 1000

Input line: Item CC1(C)Nc2ccc(-c3csc(C#N)c3)cc2C(C)(C)C1=O : provide IC50
Output line: 2700

Input line: Item Cc1cc(C#N)sc1-c1ccc2c(c1)C(C)(C)C(=O)C(C)(C)N2 : provide IC50
Output line: 2100

Input line: Item CC1=CC(C)(C)Nc2ccc(-c3csc(C#N)c3)cc21 : provide IC50
Output line: 2050

Input line: Item CC1=CC(C)(C)Nc2ccc(-c3sc(C#N)cc3C)cc21 : provide IC50
Output line: 2000

----------
measured_on: Progesterone receptor (Homo sapiens, UniProt P06401)
Sequence (P06401 whole entry): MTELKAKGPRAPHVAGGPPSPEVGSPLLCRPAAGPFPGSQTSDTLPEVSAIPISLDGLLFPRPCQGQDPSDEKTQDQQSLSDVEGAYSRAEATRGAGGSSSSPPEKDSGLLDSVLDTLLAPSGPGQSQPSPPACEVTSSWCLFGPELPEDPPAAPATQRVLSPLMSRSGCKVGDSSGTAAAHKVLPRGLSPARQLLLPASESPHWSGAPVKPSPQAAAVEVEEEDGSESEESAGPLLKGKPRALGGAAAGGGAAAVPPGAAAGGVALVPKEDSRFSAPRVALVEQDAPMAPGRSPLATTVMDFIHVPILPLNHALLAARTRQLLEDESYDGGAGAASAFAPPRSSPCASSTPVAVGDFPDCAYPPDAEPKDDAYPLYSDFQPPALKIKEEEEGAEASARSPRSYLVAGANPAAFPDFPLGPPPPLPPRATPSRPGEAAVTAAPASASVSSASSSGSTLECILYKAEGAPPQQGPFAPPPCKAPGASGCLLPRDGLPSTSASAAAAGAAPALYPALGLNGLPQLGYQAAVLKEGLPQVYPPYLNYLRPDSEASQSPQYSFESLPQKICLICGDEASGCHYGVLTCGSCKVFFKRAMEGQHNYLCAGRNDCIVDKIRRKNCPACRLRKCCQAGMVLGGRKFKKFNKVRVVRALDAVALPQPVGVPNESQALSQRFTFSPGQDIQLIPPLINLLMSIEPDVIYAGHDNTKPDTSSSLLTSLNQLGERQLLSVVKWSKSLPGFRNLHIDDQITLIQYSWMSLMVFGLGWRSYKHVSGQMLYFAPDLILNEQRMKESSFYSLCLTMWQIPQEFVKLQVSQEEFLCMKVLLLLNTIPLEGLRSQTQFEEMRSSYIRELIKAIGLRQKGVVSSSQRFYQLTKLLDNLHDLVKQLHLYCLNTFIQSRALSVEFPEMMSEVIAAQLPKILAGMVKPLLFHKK
measured_endpoint: log10 Ki (log10 of the value in µM)
Please note: log10 values; quantity Ki; unit µM.

Input line: State measured log10 Ki of the compound CC1(C)Nc2ccc(-c3csc(C#N)c3)cc2C(C)(C)C1=O with Progesterone receptor (Homo sapiens, UniProt P06401).
Output line: -1.91

Input line: State measured log10 Ki of the compound CC1=CC(C)(C)Nc2ccc(-c3sccc3C)cc21 with Progesterone receptor (Homo sapiens, UniProt P06401).
Output line: -1.60

Input line: State measured log10 Ki of the compound CC1=CC(C)(C)Nc2ccc(-c3csc(C#N)c3)cc21 with Progesterone receptor (Homo sapiens, UniProt P06401).
Output line: -2.46

Input line: State measured log10 Ki of the compound CC1=CC(C)(C)Nc2ccc(-c3ccc(Br)s3)cc21 with Progesterone receptor (Homo sapiens, UniProt P06401).
Output line: -1.51

Input line: State measured log10 Ki of the compound CC1=CC(C)(C)Nc2ccc(-c3cc(Br)cs3)cc21 with Progesterone receptor (Homo sapiens, UniProt P06401).
Output line: -1.49

Input line: State measured log10 Ki of the compound CC1=CC(C)(C)Nc2ccc(-c3ccc(C#N)s3)cc21 with Progesterone receptor (Homo sapiens, UniProt P06401).
Output line: -1.26

Input line: State measured log10 Ki of the compound Cc1cc(C#N)sc1-c1ccc2c(c1)C(C)(C)C(=O)C(C)(C)N2 with Progesterone receptor (Homo sapiens, UniProt P06401).
Output line: -2.41

Input line: State measured log10 Ki of the compound CC1=CC(C)(C)Nc2ccc(-c3sc(C#N)cc3C)cc21 with Progesterone receptor (Homo sapiens, UniProt P06401).
Output line: -1.59

Input line: State measured log10 Ki of the compound CC1=CC(C)(C)Nc2ccc(-c3c(C)sc(C#N)c3C)cc21 with Progesterone receptor (Homo sapiens, UniProt P06401).
Output line: -1.44

Input line: State measured log10 Ki of the compound CC1=CC(C)(C)Nc2ccc(-c3cc(C#N)sc3C)cc21 with Progesterone receptor (Homo sapiens, UniProt P06401).
Output line: -1.51

Input line: State measured log10 Ki of the compound CC1=CC(C)(C)Nc2ccc(-c3cccs3)cc21 with Progesterone receptor (Homo sapiens, UniProt P06401).
Output line: -0.63

Input line: State measured log10 Ki of the compound CC1=CC(C)(C)Nc2ccc(-c3ccc(C=O)s3)cc21 with Progesterone receptor (Homo sapiens, UniProt P06401).
Output line: -1.10

Source listed as ChEMBL document CHEMBL1133403.
